Source listed as paper PMC8170132.

target: HLA-B*57:01 (Homo sapiens, UniProt P01889, D201E/D98Y/E176V/E187L/E204Q/E69M/E70A/G107R/I90N/K202T/L105A/L119I/N104I/N87E/Q89R/Q94S/R106L/R155S/R180L/R86G/S101N/S121V/S35A/S48A/T118I/V36M/Y140S/Y91M); test: LC-MRM-MS quantitation of HLA ligands and co-purified abacavir from abacavir treated C1R.B*57:01 cells; type: cell-based; conditions: C1R.B*57:01, 35 µM abacavir 0-16 h or constant; linear regression of normalised abundance, three replicates
MEASURE_NAME: Category of abacavir impact on peptide abundance in the immunopeptidome

BIOSEQUENCE	VALUE_OBSERVED
LTTKLTNTNI [non-labelled HLA-B*57:01 ligand]	Dependent
NTVELRVKI [non-labelled HLA-B*57:01 ligand]	Dependent

###

target: HLA-B*57:01 (Homo sapiens, UniProt P01889, D201E/D98Y/E176V/E187L/E204Q/E69M/E70A/G107R/I90N/K202T/L105A/L119I/N104I/N87E/Q89R/Q94S/R106L/R155S/R180L/R86G/S101N/S121V/S35A/S48A/T118I/V36M/Y140S/Y91M); assay: LC-MRM-MS quantitation of HLA ligands and co-purified abacavir from abacavir treated C1R.B*57:01 cells; assay type: cell-based; conditions: C1R.B*57:01, 35 µM abacavir 0-16 h or constant; linear regression of normalised abundance, three replicates
MEASURE_NAME: Category of abacavir impact on peptide abundance in the immunopeptidome

BIOSEQUENCE	VALUE_OBSERVED
KTFKDVGNLL [non-labelled HLA-B*57:01 ligand]	Facilitated
TSLKSRVTI [non-labelled HLA-B*57:01 ligand]	Facilitated
ITKTVVENI [HLA-B*57:01 ligand]	Minimal
HTIQIRQDW [HLA-B*57:01 ligand]	Facilitated

Read the next record carefully.
Sure, the documented Category of abacavir impact on peptide abundance in the immunopeptidome for LSKPNPPSL [HLA-B*57:01 ligand] is Minimal

###

molecular target: HLA-B*57:01 (Homo sapiens, UniProt P01889, D201E/D98Y/E176V/E187L/E204Q/E69M/E70A/G107R/I90N/K202T/L105A/L119I/N104I/N87E/Q89R/Q94S/R106L/R155S/R180L/R86G/S101N/S121V/S35A/S48A/T118I/V36M/Y140S/Y91M); test: LC-MRM-MS quantitation of HLA ligands and co-purified abacavir from abacavir treated C1R.B*57:01 cells; format: cell-based; conditions: LC-MRM-MS detection; classification of the peptide based on abacavir dependency
MEASURE_NAME: Abacavir dependence

Answered cases to consult:
BIOSEQUENCE	Abacavir dependence
KTFIGTVRV	Dependent
ASSSQIIHI	Dependent
ITKTVVENI [HLA-B*57:01 ligand]	Minimal
RTLLEDGTFKV	Dependent
ATFKGIVRAI [non-labelled HLA-B*57:01 ligand]	Dependent
HSTDRVVLI	Dependent
ITAGAHRLW	Minimal
VSAKEKYYVW	Minimal
RVLPPSHRVTW	Minimal
ISIHVGQAGVQI	Dependent

Kindly note the recorded Abacavir dependence for GTYQDVGSLNI , which is Dependent

Per the records, this sequence ( NTVELRVKI [non-labelled HLA-B*57:01 ligand] ) has Abacavir dependence equal to Dependent

For TSQAGLFRLW the sequence record lists Abacavir dependence as Minimal

Recorded result, YTDNLVRVW [HLA-B*57:01 ligand derived from RACK1] , Abacavir dependence: Minimal

Abacavir dependence for VTYPAKAKGTFI is Dependent
